protocol-text: Solubility of methocarbamol in different vehicles at various pH conditions
Format: physicochemical
protocol-conditions: purified water, water
measurement-label: solubility (mg/mL)
The response must be a number in mg/mL with no trailing unit.

Entry under review: COc1ccccc1OCC(O)COC(N)=O (stereo not shown) [methocarbamol] . Reported solubility?
15.3

----------
protocol-text: Solubility of methocarbamol in different vehicles at various pH conditions
Format: physicochemical
protocol-conditions: 0.1N HCl, simulated gastric fluid
measurement-label: solubility (mg/mL)
The response must be a number in mg/mL with no trailing unit.

Entry under review: COc1ccccc1OCC(O)COC(N)=O (stereo not shown) . Reported solubility?
15.5

Numbers sourced from patent US12390439B2.
